# System: OleTJE (CYP152L1) (Jeotgalicoccus sp. ATCC 8456)
# Construct: gene JEM45_03820; full length, codon-optimized gene in modified pET15b, N-terminal polyhistidine tag with TEV site; tag kept for spectroscopy, cleaved for crystallography; expressed in E. coli C41 (DE3)
# Experimental protocol: UV-visible heme spectral titration
# Format: binding
# Reported conditions: read-out: Fatty acid Kd (HS) / C18:0
Metric: Kd (µM)
Give bare numbers, in µM.

Problem: Record request: Kd value, item `CCCCCCCCCCCCCCCCCC(=O)O`
Solution: 4.09

###

# System: OleTJE (CYP152L1) (Jeotgalicoccus sp. ATCC 8456, UniProt E9NSU2)
# Construct: gene JEM45_03820; full length, codon-optimized gene in modified pET15b, N-terminal polyhistidine tag with TEV site; tag kept for spectroscopy, cleaved for crystallography; expressed in E. coli C41 (DE3)
# Sequence (E9NSU2 1-422): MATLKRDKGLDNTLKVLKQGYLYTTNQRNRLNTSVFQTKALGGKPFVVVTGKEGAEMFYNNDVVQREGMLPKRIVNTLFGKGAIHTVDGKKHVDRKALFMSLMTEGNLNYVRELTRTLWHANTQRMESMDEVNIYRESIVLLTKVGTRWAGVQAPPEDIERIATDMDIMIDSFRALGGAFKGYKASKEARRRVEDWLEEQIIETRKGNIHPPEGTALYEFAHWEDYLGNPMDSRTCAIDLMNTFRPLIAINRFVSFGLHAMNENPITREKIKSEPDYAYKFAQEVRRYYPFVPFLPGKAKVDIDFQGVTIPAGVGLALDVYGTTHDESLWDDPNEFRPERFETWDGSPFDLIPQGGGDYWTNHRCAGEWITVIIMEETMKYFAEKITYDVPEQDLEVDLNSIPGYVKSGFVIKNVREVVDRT
# Experimental protocol: UV-visible heme spectral titration
# Type: binding
# Reported conditions: read-out: Fatty acid Kd (HS) / C20:0
Metric: pKd
Answers are plain numbers, as −log10 of the molar value.

Problem: Give recorded pKd with OleTJE (CYP152L1) (Jeotgalicoccus sp. ATCC 8456, UniProt E9NSU2) for the following compound: `CCCCCCCCCCCCCCCCCCCC(=O)O`
Solution: 5.35

###

# System: OleTJE (CYP152L1) (Jeotgalicoccus sp. ATCC 8456, UniProt E9NSU2, F79W)
# Construct: gene JEM45_03820; full length, codon-optimized gene in modified pET15b, N-terminal polyhistidine tag with TEV site; tag kept for spectroscopy, cleaved for crystallography; expressed in E. coli C41 (DE3)
# Experimental protocol: UV-visible heme spectral titration
# Format: binding
# Reported conditions: read-out: Fatty acid Kd (HS) / C14:0
Metric: Kd (µM)
One number for each entry, in µM.

Problem: Record request: Kd value, item CCCCCCCCCCCCCC(=O)O [C14:0, tetradecanoic acid]
Solution: 24.1

###

# System: OleTJE (CYP152L1) (Jeotgalicoccus sp. ATCC 8456, UniProt E9NSU2, H85Q)
# Construct: gene JEM45_03820; full length, codon-optimized gene in modified pET15b, N-terminal polyhistidine tag with TEV site; tag kept for spectroscopy, cleaved for crystallography; expressed in E. coli C41 (DE3)
# Sequence (E9NSU2 1-422 H85Q): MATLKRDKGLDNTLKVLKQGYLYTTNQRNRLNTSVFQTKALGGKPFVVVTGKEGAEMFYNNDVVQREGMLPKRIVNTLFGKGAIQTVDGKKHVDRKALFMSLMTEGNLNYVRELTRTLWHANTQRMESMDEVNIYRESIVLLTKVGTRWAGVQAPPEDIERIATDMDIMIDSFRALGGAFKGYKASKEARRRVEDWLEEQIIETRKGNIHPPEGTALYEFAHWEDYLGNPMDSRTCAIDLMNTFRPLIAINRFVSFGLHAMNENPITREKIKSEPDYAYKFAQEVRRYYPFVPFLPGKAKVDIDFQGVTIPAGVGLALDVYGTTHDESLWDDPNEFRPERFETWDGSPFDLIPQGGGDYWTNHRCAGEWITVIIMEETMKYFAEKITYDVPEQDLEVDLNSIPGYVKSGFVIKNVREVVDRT
# Experimental protocol: UV-visible heme spectral titration
# Format: binding
# Reported conditions: read-out: Fatty acid Kd (HS) / C18:0
Metric: Kd
Answer with the value and then the unit.

Problem: Give recorded Kd with OleTJE (CYP152L1) (Jeotgalicoccus sp. ATCC 8456, UniProt E9NSU2, H85Q) for the following compound: CCCCCCCCCCCCCCCCCC(=O)O [C18:0, octadecanoic acid]
Solution: 5.92 µM

###

# System: OleTJE (CYP152L1) (Jeotgalicoccus sp. ATCC 8456, UniProt E9NSU2, H85Q)
# Construct: gene JEM45_03820; full length, codon-optimized gene in modified pET15b, N-terminal polyhistidine tag with TEV site; tag kept for spectroscopy, cleaved for crystallography; expressed in E. coli C41 (DE3)
# Experimental protocol: UV-visible heme spectral titration
# Format: binding
# Reported conditions: read-out: Fatty acid Kd (HS) / C14:0
Metric: pKd
Give bare numbers, as −log10 of the molar value.

Problem: Give recorded pKd with OleTJE (CYP152L1) (Jeotgalicoccus sp. ATCC 8456, UniProt E9NSU2, H85Q) for the following compound: CCCCCCCCCCCCCC(=O)O [C14:0, tetradecanoic acid]
Solution: 4.98

###

# System: OleTJE (CYP152L1) (Jeotgalicoccus sp. ATCC 8456, UniProt E9NSU2, F79A)
# Construct: gene JEM45_03820; full length, codon-optimized gene in modified pET15b, N-terminal polyhistidine tag with TEV site; tag kept for spectroscopy, cleaved for crystallography; expressed in E. coli C41 (DE3)
# Experimental protocol: UV-visible heme spectral titration
# Assay type: binding
# Reported conditions: read-out: Fatty acid Kd (HS) / C12:0
Metric: Kd (µM)
One number for each entry, in µM.

Problem: Record request: Kd value, item `CCCCCCCCCCCC(=O)O`
Solution: 55

###

# System: OleTJE (CYP152L1) (Jeotgalicoccus sp. ATCC 8456, UniProt E9NSU2)
# Construct: gene JEM45_03820; full length, codon-optimized gene in modified pET15b, N-terminal polyhistidine tag with TEV site; tag kept for spectroscopy, cleaved for crystallography; expressed in E. coli C41 (DE3)
# Sequence (E9NSU2 1-422): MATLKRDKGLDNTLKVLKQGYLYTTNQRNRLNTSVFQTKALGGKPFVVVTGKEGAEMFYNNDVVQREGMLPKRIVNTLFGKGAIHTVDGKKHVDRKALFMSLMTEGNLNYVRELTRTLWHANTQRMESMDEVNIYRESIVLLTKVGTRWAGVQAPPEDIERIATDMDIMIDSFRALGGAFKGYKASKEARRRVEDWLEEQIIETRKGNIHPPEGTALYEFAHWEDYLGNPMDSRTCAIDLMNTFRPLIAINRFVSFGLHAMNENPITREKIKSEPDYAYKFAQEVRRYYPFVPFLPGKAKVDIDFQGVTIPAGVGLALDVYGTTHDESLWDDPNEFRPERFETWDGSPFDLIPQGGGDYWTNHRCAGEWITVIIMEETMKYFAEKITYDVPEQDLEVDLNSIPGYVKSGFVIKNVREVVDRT
# Experimental protocol: UV-visible heme spectral titration
# Assay type: binding
# Reported conditions: read-out: Fatty acid Kd (HS) / C16:0
Metric: pKd
One number for each entry, as −log10 of the molar value.

Problem: Record request: pKd value, item `CCCCCCCCCCCCCCCC(=O)O`
Solution: 5.76

###

# System: OleTJE (CYP152L1) (Jeotgalicoccus sp. ATCC 8456, UniProt E9NSU2, F79W)
# Construct: gene JEM45_03820; full length, codon-optimized gene in modified pET15b, N-terminal polyhistidine tag with TEV site; tag kept for spectroscopy, cleaved for crystallography; expressed in E. coli C41 (DE3)
# Experimental protocol: UV-visible heme spectral titration
# Format: binding
# Reported conditions: read-out: Fatty acid Kd (HS) / C16:0
Metric: pKd
Numbers only, as −log10 of the molar value.

Problem: Record request: pKd value, item `CCCCCCCCCCCCCCCC(=O)O`
Solution: 4.90

###

# System: OleTJE (CYP152L1) (Jeotgalicoccus sp. ATCC 8456, UniProt E9NSU2, F79A)
# Construct: gene JEM45_03820; full length, codon-optimized gene in modified pET15b, N-terminal polyhistidine tag with TEV site; tag kept for spectroscopy, cleaved for crystallography; expressed in E. coli C41 (DE3)
# Experimental protocol: UV-visible heme spectral titration
# Type: binding
# Reported conditions: read-out: Fatty acid Kd (HS) / C18:0
Metric: pKd
One number for each entry, as −log10 of the molar value.

Problem: Record request: pKd value, item `CCCCCCCCCCCCCCCCCC(=O)O`
Solution: 5.06

###

# System: OleTJE (CYP152L1) (Jeotgalicoccus sp. ATCC 8456, UniProt E9NSU2, F79W)
# Construct: gene JEM45_03820; full length, codon-optimized gene in modified pET15b, N-terminal polyhistidine tag with TEV site; tag kept for spectroscopy, cleaved for crystallography; expressed in E. coli C41 (DE3)
# Experimental protocol: UV-visible heme spectral titration
# Format: binding
# Reported conditions: read-out: Fatty acid Kd (HS) / C20:0
Metric: Kd (µM)
One number for each entry, in µM.

Problem: Give recorded Kd with OleTJE (CYP152L1) (Jeotgalicoccus sp. ATCC 8456, UniProt E9NSU2, F79W) for the following compound: `CCCCCCCCCCCCCCCCCCCC(=O)O`
Solution: 4.41
